Molecular target: T1, mature myostatin (recombinant, dimeric) (mouse polyprotein used for in-house …, UniProt O08689 268-376)
T1 construct: also called GDF-8; recombinant myostatin
T1 sequence: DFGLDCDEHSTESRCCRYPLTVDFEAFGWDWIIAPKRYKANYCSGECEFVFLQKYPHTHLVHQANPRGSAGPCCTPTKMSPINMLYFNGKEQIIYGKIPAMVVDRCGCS
Experiment: competition ELISA, directly coated myostatin, competitor 10B3
METRIC: ranking order top (1) to bottom (5), myostatin competition ELISA
Answer with a number only.

Just so you know, measured ranking order top (1) to bottom (5), myostatin competition ELISA for H2L2-C91S_P100B_I (antibody, human IgG1, kappa, V domains shown) VH: QVQLVQSGAEVKKPGASVKVSCKASGYSFTGYFMHWVRQAPGQGLEWMGNIYPYNGVSNYNQRFKARVTMTTDTSTSTAYMELRSLRSDDTAVYYCARRYYYGTGIADWYFDVWGQGTLVTVSS VL: DIQMTQSPSSLSASVGDRVTITCKASQDINSYLSWFQQKPGKAPKSLIYRANRLVDGVPSKFSGSGSGTDYTLTISSLQPEDFATYYCLQSDEFPLTFGQGTKLEIKR came out at 5
